target: T1, FZD6 cysteine-rich domain (CRD), MYC-tagged and GPI-anchored on CHO cells (human, UniProt O60353 20-146, GPI anchor)
T1 construct: also called FZD6 CRD; CHO-myc-FZDGPI; not shown: MYC tag and GPI anchor signal
T1 sequence: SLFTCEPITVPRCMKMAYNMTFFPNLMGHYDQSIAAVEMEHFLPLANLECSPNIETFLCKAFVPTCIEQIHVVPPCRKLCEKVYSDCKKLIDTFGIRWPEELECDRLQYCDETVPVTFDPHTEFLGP
assay.info: immunofluorescence, CHO-CRD cells

binder	binding result
Fab-2936 (Fab, V domains shown, Fab; also called Fv-2936) VH: EVQLVESGGGLVQPGGSLRLSCAASGFNISYYYMHWVRQAPGKGLEWVASIYSSSGSTSYADSVKGRFTISADTSKNTAYLQMNSLRAEDTAVYYCARAAMDYWGQGTLVTVSS VL: DIQMTQSPSSLSASVGDRVTITCRASQSVSSAVAWYQQKPGKAPKLLIYSASSLYSGVPSRFSGSRSGTDFTLTISSLQPEDFATYYCQQWYAASLITFGQGTKVEIK	no binding
Fab-2917 (Fab, V domains shown, Fab; also called Fv-2917) VH: EVQLVESGGGLVQPGGSLRLSCAASGFNFSSSSIHWVRQAPGKGLEWVASISSSYGYTYYADSVKGRFTISADTSKNTAYLQMNSLRAEDTAVYYCARAVWYYWWVWGGFDYWGQGTLVTVSS VL: DIQMTQSPSSLSASVGDRVTITCRASQSVSSAVAWYQQKPGKAPKLLIYSASSLYSGVPSRFSGSRSGTDFTLTISSLQPEDFATYYCQQSSYSLITFGQGTKVEIK	no binding
